Each item that follows carries a reported GI50.
# Tested on: COLO 205
# test: NCI tumour cell line growth inhibition, 48 h
Activity calls are given as the source filed them. Cut-off read from the data, not from the text of the source: active = GI50 up to about 1.1 µM and inactive = higher.

compound	GI50
CC1(Cl)CC2C(CC1Sc1nnnn1-c1ccccc1)C2(C)C (configuration not stated)	83.8 µM (inactive)
COC(=O)n1c(=O)n(-c2ccccc2)c(=O)n1C(=O)OC	> 100 µM (inactive)
Cc1nc(N)sc1/N=N/c1ccccc1Br	> 54.7 µM (inactive)
NS(=O)(=O)c1nnc(NC(=O)c2ccccc2)s1	> 100 µM (inactive)
Cc1c(-c2ccccc2)nn2cc(-c3ccccc3)nnc12	22.2 µM (inactive)

Quick note, GI50 for "N#CC(C#N)=C/C=C/c1ccccc1[N+](=O)[O-]" landed at 3.93 µM (inactive)

Quick note, GI50 for "COc1ccc(-c2cc(-c3ccccc3)c3c(n2)-c2ccccc2NC(=O)C3)cc1" landed at > 100 µM (inactive)

Quick note, GI50 for "C[Si](C)(c1ccccc1)C1CC(=O)CC(=O)C1" landed at > 100 µM (inactive)

Quick note, GI50 for Cc1ccc(N2Cc3c(ccc4ccccc34)OP2(=S)N2CCCC2)cc1 (configuration not stated) landed at > 100 µM (inactive)

Quick note, GI50 for "Clc1cc(Cl)nc(Nc2ccc3c(c2)CCC3)n1" landed at 24 µM (inactive)

Quick note, GI50 for "CN(C)Cc1c(O)ccc2c1c1c(n2C)C(=O)c2ccccc2C1=O" landed at 6.76 µM (inactive)

Quick note, GI50 for "CC(C)(C)[Si](C)(C)O/N=C\c1ccc(O[Si](C)(C)C(C)(C)C)cc1" landed at > 100 µM (inactive)

Quick note, GI50 for "CC(C)C[C@H](NC(=O)CCc1ccccc1)B(O)O" landed at 12.7 µM (inactive)

Quick note, GI50 for "COCn1c2ccc(OC(C)=O)cc2c2c(=O)oc(N(C)C)nc21" landed at > 100 µM (inactive)

Quick note, GI50 for "CN(C)c1ccc2c(c1)oc(=O)c1ccccc12" landed at 12.2 µM (inactive)

Quick note, GI50 for Cc1cccc(N2C(=O)C(=O)C(c3nc4ccccc4s3)/C(=N/NC(=S)NN)C2=O)c1C (configuration not stated) landed at > 100 µM (inactive)

Quick note, GI50 for COc1ccccc1NC(=O)C(=O)C(C(=O)c1ccccc1F)C1OC(=O)c2ccccc21 (configuration not stated) landed at 19.2 µM (inactive)

###

Each item that follows carries a reported GI50.
# System: SNB-19
# test: NCI tumour cell line growth inhibition, 48 h
Active and inactive are the calls of the source. Rule as the data show it: active = GI50 up to about 1.1 µM and inactive = higher.

Solved cases (4 shown):
compound	result
Cc1ncc([N+](=O)[O-])n1CCNC(=O)Cn1c([N+](=O)[O-])cnc1C	> 100 µM (inactive)
O=C1NCC2(CCN(CC3COc4ccccc4O3)CC2)N1c1ccccc1 (stereo not drawn)	> 100 µM (inactive)
CCOP(=O)(O)CC1OC(CO)C(O)C1O (stereo not drawn)	> 100 µM (inactive)
COc1cccc(NC(=O)CC(=O)NN2C(=O)/C(=C/c3ccc(N(CCC#N)CCC#N)cc3)N=C2c2cc([N+](=O)[O-])ccc2Cl)c1	> 100 µM (inactive)

Quick note, GI50 for "C=Cc1c(-c2ccccc2)cnc2[nH]c3ccccc3c12" landed at > 50 µM (inactive)

###

Each item that follows carries a reported GI50.
# System: SF-539
# test: NCI tumour cell line growth inhibition, 48 h
Activity calls are given as the source filed them. No stated cut-off is given here; in the data, active = GI50 up to about 1.1 µM and inactive = higher.

Quick note, GI50 for COc1cc(C2S/C(=C/c3ccccc3)C(=O)N2c2cccc(Cl)c2)cc(OC)c1OC (stereo not drawn) landed at 31 µM (inactive)

Quick note, GI50 for COC(=O)C1=C(C)C(=O)[C@H]2C(C(=O)OC)CCCC[C@@H]12 (stereo partly drawn) landed at > 100 µM (inactive)

###

# System: SF-539
# test: NCI tumour cell line growth inhibition, 48 h
Activity calls are given as the source filed them. Cut-off read from the data, not from the text of the source: active = GI50 up to about 1.1 µM and inactive = higher.
The reply should be one of these categories: T (active), F (inactive)

Take a look at these entries with their results.
compound	classification
O=C1O/C(=C\c2ccc(O)cc2)C(c2ccc(O)c(Cl)c2)=C1Cl	F
CC(=O)N1CN2C(=O)CCC2c2ccccc21 (stereo unspecified)	F
O=S(=O)(c1ccc(I)cc1)N(c1ccccc1)S(=O)(=O)C(F)(F)C(F)(F)C(F)(F)C(F)(F)F	F

Status in this test for "O=C(NC12CC3CC(CC(F)(C3)C1)C2)c1ccccc1" ?
F

Status in this test for "Cc1cc2c(cc1Cl)Sc1nnc(Nc3ccccc3)n1S2(=O)=O" ?
F

Status in this test for "CC(C)(C)NNC(=O)/C(=C/c1ccc([N+](=O)[O-])cc1)NC(=O)c1ccccc1" ?
F

Status in this test for "COc1cccc(CCn2c(N)c(-c3cc(Cl)cc(Cl)c3)c3ccc([N+](=O)[O-])cc3c2=O)c1" ?
F

Status in this test for "CS(=O)(=O)OCCN(CCOS(C)(=O)=O)c1ccc(/C=N/c2cccc(Cl)c2)cc1" ?
F

Status in this test for "CC(=O)N(CCCCNC(=O)C(F)(F)F)CCCNC(=O)C(F)(F)F" ?
F

Status in this test for CO[C@H](C(=O)[C@@H](O)[C@@H](C)O)[C@@H]1Cc2cc3cc(OC4CC(OC5CC(O)C(O)C(C)O5)C(O)C(C)O4)c(C)c(O)c3c(O)c2C(=O)[C@H]1OC1CC(OC2CC(OC3CC(C)(O)C(O)C(C)O3)C(O)C(C)O2)C(O)C(C)O1 (stereo partly specified) ?
T

Status in this test for "CCc1cccc(CC)c1NC(=O)C1=C(C)NC(C)=C(C(=O)Nc2c(CC)cccc2CC)C1c1ccc2c(c1)OCO2" ?
F

Status in this test for "CC(=O)/C(=C/n1c(=S)sc2ccccc21)C(=O)Nc1ccccc1C" ?
F

Status in this test for CN(C)c1ccc(C2SCC(=O)N2c2ccc(Oc3ccc(Cl)cc3)c(Cl)c2)cc1 (stereo unspecified) ?
F

###

# Tested on: T47D
# test: NCI tumour cell line growth inhibition, 48 h
Active and inactive are the calls of the source. No stated cut-off is given here; in the data, active = GI50 up to about 1.1 µM and inactive = higher.
The reply should be one of these categories: 1.0 for active, 0.0 for inactive

Take a look at these entries with their results.
compound	classification
NC(=S)SCCC(=O)O	0.0
NC(Cc1n[nH]c2ccccc12)C(=O)O (stereo not given)	0.0
COc1cc(C(=O)N(Cc2cccnc2)C(=S)N(Cc2cccnc2)C(=O)c2cc(OC)c(OC)c(OC)c2)cc(OC)c1OC	0.0

Status in this test for "C[C@@H]1C[C@H](O)[C@]2(O)O[C@@H]3C[C@@]4(C=O)[C@@H](CC=C5[C@@H]4CC[C@]4(C)[C@@H](C6=CC(=O)OC6)CC[C@]54O)C[C@H]3O[C@@H]2O1" ?
1.0

###

# Tested on: A549
# test: NCI tumour cell line growth inhibition, 48 h
Activity calls are given as the source filed them. Rule as the data show it: active = GI50 up to about 1.1 µM and inactive = higher.
The reply should be one of these categories: yes (1) for active, no (0) for inactive

compound	classification
Cc1nn2c(=O)c([N+](=O)[O-])c(/C=C/c3ccc(F)cc3)nc2s1	no (0)

Status in this test for CCOC(=O)C(=O)C(/C(=N/N(C)C)C(=O)Nc1ccc(C)cc1C)c1nc2ccccc2nc1O (stereo not given) ?
no (0)

Status in this test for Cc1[nH]c(=O)[nH]c(=O)c1/C=C/C(=O)NC(CO)CC(C)C (stereo not given) ?
no (0)

Status in this test for "CCN(CC)Cc1cc(Nc2c3ccccc3nc3c2[nH]c2ccccc23)ccc1O" ?
yes (1)

Status in this test for "Cc1ccc(S(=NS(=O)(=O)c2ccc(C)cc2)c2ccc(C)cc2)cc1" ?
no (0)

###

# Test system: KM12
# test: NCI tumour cell line growth inhibition, 48 h
The source made the active and inactive calls. No stated cut-off is given here; in the data, active = GI50 up to about 1.1 µM and inactive = higher.
The reply should be one of these categories: t = active, f = inactive

compound	classification
C1=N\CCN2CCN(CC/N=C\c3ccc(cc3)OCc3cccc(n3)COc3ccc/1cc3)CC2	f
C=C[C@@]1(C)CC2(C=C(CO)C(O)O2)Oc2c1c(=O)oc1cccc(C)c21 (some centres undefined)	f
Cc1ncc([N+](=O)[O-])n1CCNC(=O)Cn1c([N+](=O)[O-])cnc1C	f

Status in this test for CC(/C(=N/NC(=O)C(N)=O)c1c(Cl)ccc(Cl)c1O)C1(O)C(=O)Nc2ccccc21 (centres undefined) ?
f

Status in this test for "Cc1n(CC(=O)c2ccc([N+](=O)[O-])cc2)c2c([n+]1CC(C)C)C(=O)c1ccccc1C2=O" ?
t

Status in this test for "N#Cc1c(Cl)cccc1Oc1ccc(S(=O)(=O)/N=C(\NN)Nc2ccc(Cl)cc2)cc1" ?
f

###

# System: NCI-H23
# test: NCI tumour cell line growth inhibition, 48 h
Active and inactive are the calls of the source. No stated cut-off is given here; in the data, active = GI50 up to about 1.1 µM and inactive = higher.
Each item that follows carries a reported GI50.

Solved cases (3 shown):
compound	GI50
O=C1OC(c2ccc(O)c(Cl)c2)(c2ccc(O)c(Cl)c2)c2ccc(Br)c3cccc1c23.O=C1OC(c2ccc(O)c(Cl)c2)(c2ccc(O)c(Cl)c2)c2cccc3c(Br)ccc1c23	16.7 µM (inactive)
CCOC(=O)/C(=N\Nc1ccc(-n2c(C)nc3ccc(Br)cc3c2=O)cc1)C(C)=O	69.5 µM (inactive)
CC(C)C[C@H](NC(=O)CCc1ccccc1)B(O)O	16.5 µM (inactive)

Item: CCOC(=O)C(=CNc1ccc(N(C2=NCC(C)S2)c2ccc(F)c(Cl)c2)cc1)C(=O)OCC (stereo not drawn) | System: NCI-H23 | GI50: 17.5 µM (inactive)

Item: COC1=CC(C2c3cc4c(cc3[C@@H](Nc3ccc(F)cc3)C3COC(=O)[C@H]23)OCO4)=CC(=O)C1=O (stereo partly drawn) | System: NCI-H23 | GI50: 2.88 µM (inactive)

Item: "O=[N+]([O-])c1cccc(S(=O)(=O)N/N=C/c2cc(I)cc([N+](=O)[O-])c2O)c1" | System: NCI-H23 | GI50: 22 µM (inactive)

Item: "Cc1c(-c2ccccc2)nn2cc(-c3ccccc3)nnc12" | System: NCI-H23 | GI50: 31.9 µM (inactive)

Item: C[C@]12CCNC(=O)C=C1CC[C@@H]1C2CC[C@@]2(C)C1CC[C@@H]2OC(=O)COc1ccc(N(CCCl)CCCl)cc1 (stereo partly drawn) | System: NCI-H23 | GI50: 2.99 µM (inactive)

Item: Cn1c2ccccc2c(=O)c2c(O)cc3c(c21)CC(C1(C)CO1)O3 (stereo not drawn) | System: NCI-H23 | GI50: 2.02 µM (inactive)

Item: "CC(C)=C[C@@H]1C[C@H](C)c2c(O)cc(C)c3c2C1=C(C)C(=O)C3=O" | System: NCI-H23 | GI50: 13.5 µM (inactive)

Item: O=NN(CC1(O)OCC(O)C(O)C1O)C(Cc1c[nH]c2ccccc12)C(=O)O (stereo not drawn) | System: NCI-H23 | GI50: > 100 µM (inactive)

Item: "Cc1nc2c(n1C)C(=O)c1nc(CBr)[nH]c(=O)c1C2=O" | System: NCI-H23 | GI50: > 100 µM (inactive)

Item: "O=C(O)c1cc(Cl)cc(Cc2cc(Cl)cc(C(=O)O)c2O)c1O" | System: NCI-H23 | GI50: > 100 µM (inactive)

Item: "O=C(N/N=C/c1ccccc1)c1c(-c2cccnc2)cnc2ccccc12" | System: NCI-H23 | GI50: > 100 µM (inactive)

Item: "O=C(O)[C@@H]1CCC(=O)N1C(c1ccc2c(c1)OCO2)c1ccc2c(c1)OCO2" | System: NCI-H23 | GI50: > 100 µM (inactive)

Item: "CCCNc1[nH]c(C(C)=O)c(N)c1C(=S)Nc1ccccc1" | System: NCI-H23 | GI50: 41 µM (inactive)

Item: Cc1cccc2c1CCC21OC(=O)c2c1ccc1ccccc21 (stereo not drawn) | System: NCI-H23 | GI50: 32.9 µM (inactive)

Item: "O=C1O/C(=C\c2ccc(O)cc2)C(c2ccc(O)c(Cl)c2)=C1Cl" | System: NCI-H23 | GI50: 33.7 µM (inactive)
